Tested on: MDA-MB-468 spheroids with HUVEC/MSC, viability
method_description: Anticancer human tumor MDA-MB-468 cell line growth inhibition [PI3K];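 note: spheroids exposed to agents for seven days before readout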;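 for viability, T/C: 100% = DMSO vehicle control viability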
condition: second compound 0.1 µM; first compound 0.3 µM; stronger effect = lower value
Consider the following molecules; for each one, report its viability, T/C.
The response must be a number in % with no trailing unit.

Value lookup for viability, T/C; key = Cn1cnc2c(F)c(Nc3ccc(Br)cc3Cl)c(C(=O)NOCCO)cc21 + CC(Nc1ccc2c(c1)OCCn1cc(N3C(=O)OCC3C(F)F)nc1-2)C(N)=O
77.5

Value lookup for viability, T/C; key = Cn1cnc2c(F)c(Nc3ccc(Br)cc3Cl)c(C(=O)NOCCO)cc21 + Cc1nc(NC(=O)N2CCCC2C(N)=O)sc1-c1ccnc(C(C)(C)C(F)(F)F)c1
86.5

Value lookup for viability, T/C; key = Cn1cnc2c(F)c(Nc3ccc(Br)cc3Cl)c(C(=O)NOCCO)cc21 + COc1c(OCCCN2CCOCC2)ccc2c3n(c(=NC(=O)c4cnc(N)nc4)nc12)CCN3
46.4

Value lookup for viability, T/C; key = Cn1cnc2c(F)c(Nc3ccc(Br)cc3Cl)c(C(=O)NOCCO)cc21 + CC(Nc1ncnc2nc[nH]c12)c1cc2cccc(Cl)c2c(=O)n1-c1ccccc1
89.1

* * *

Tested on: MDA-MB-468 spheroids with HUVEC/MSC, viability
method_description: Anticancer human tumor MDA-MB-468 cell line growth inhibition [PI3K];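 note: spheroids exposed to agents for seven days before readout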
condition: curve of first compound; second compound 0.1 µM
assay_readout: pIC50
Formally, pIC50 is defined as -log10 of the concentration c, with c in mol/L.

Value lookup for pIC50; key = C#Cc1c(F)ccc2cc(O)cc(-c3ncc4c(N5CC6CCC(C5)N6)nc(OCC56CCCN5CC(F)C6)nc4c3F)c12 (stereo not given) + CC(Nc1ccc2c(c1)OCCn1cc(N3C(=O)OCC3C(F)F)nc1-2)C(N)=O
5.10

Value lookup for pIC50; key = CC(C)NCC(C(=O)N1CCN(c2ncnc3c2C(C)CC3O)CC1)c1ccc(Cl)cc1 (stereo not given) + Cc1nc(NC(=O)N2CCCC2C(N)=O)sc1-c1ccnc(C(C)(C)C(F)(F)F)c1
5.92

* * *

Tested on: MDA-MB-468 spheroids with HUVEC/MSC, viability
method_description: Anticancer human tumor MDA-MB-468 cell line growth inhibition [PI3K];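 note: spheroids exposed to agents for seven days before readout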
condition: curve of first compound; second compound 10 µM
pIC50: −log10 of the molar value.
Consider the following molecules; for each one, report its pIC50.

Value lookup for pIC50; key = Cn1ncc(Cl)c1-c1cc(C(=O)NC(CN)Cc2cccc(F)c2)sc1Cl (stereo unspecified) + CC(Nc1ncnc2nc[nH]c12)c1cc2cccc(Cl)c2c(=O)n1-c1ccccc1
> 7.50

Value lookup for pIC50; key = C#Cc1c(F)ccc2cc(O)cc(-c3ncc4c(N5CC6CCC(C5)N6)nc(OCC56CCCN5CC(F)C6)nc4c3F)c12 (stereo unspecified) + CC(Nc1ncnc2nc[nH]c12)c1cc2cccc(Cl)c2c(=O)n1-c1ccccc1
> 7.50

Value lookup for pIC50; key = CC1(C)CCC(CN2CCN(c3ccc(C(=O)NS(=O)(=O)c4ccc(NCC5CCOCC5)c([N+](=O)[O-])c4)c(Oc4cnc5[nH]ccc5c4)c3)CC2)=C(c2ccc(Cl)cc2)C1 + Cc1nc(NC(=O)N2CCCC2C(N)=O)sc1-c1ccnc(C(C)(C)C(F)(F)F)c1
> 7.50

Value lookup for pIC50; key = CC(Cn1ccc(-c2ccc(C#N)c(Cl)c2)n1)NC(=O)c1cc(C(C)O)[nH]n1 (stereo unspecified) + CC(Nc1ncnc2nc[nH]c12)c1cc2cccc(Cl)c2c(=O)n1-c1ccccc1
> 7.50

Value lookup for pIC50; key = CCN1CCN(Cc2ccc(Nc3ncc(F)c(-c4cc(F)c5nc(C)n(C(C)C)c5c4)n3)nc2)CC1 + CC(Nc1ncnc2nc[nH]c12)c1cc2cccc(Cl)c2c(=O)n1-c1ccccc1
> 8.50

Value lookup for pIC50; key = CCCS(=O)(=O)Nc1ccc(F)c(C(=O)c2c[nH]c3ncc(-c4ccc(Cl)cc4)cc23)c1F + CC(Nc1ncnc2nc[nH]c12)c1cc2cccc(Cl)c2c(=O)n1-c1ccccc1
> 7.50

Value lookup for pIC50; key = CC(=O)c1c(C)c2cnc(Nc3ccc(N4CCNCC4)cn3)nc2n(C2CCCC2)c1=O + CC(Nc1ncnc2nc[nH]c12)c1cc2cccc(Cl)c2c(=O)n1-c1ccccc1
> 9.50

Value lookup for pIC50; key = C[C@@H](NC(=O)c1ncnc(N)c1Cl)c1ncc(C(=O)Nc2cc(C(F)(F)F)c(Cl)cn2)s1 + Cc1nc(NC(=O)N2CCCC2C(N)=O)sc1-c1ccnc(C(C)(C)C(F)(F)F)c1
> 7.50

Value lookup for pIC50; key = C=CC(=O)N1CCN(c2nc(=O)n(-c3c(C)ccnc3C(C)C)c3nc(-c4c(O)cccc4F)c(F)cc23)C(C)C1 (stereo unspecified) + CC(Nc1ncnc2nc[nH]c12)c1cc2cccc(Cl)c2c(=O)n1-c1ccccc1
> 7.50

Value lookup for pIC50; key = Cn1ncnc1[C@H]1c2n[nH]c(=O)c3cc(F)cc(c23)N[C@@H]1c1ccc(F)cc1 + Cc1nc(NC(=O)N2CCCC2C(N)=O)sc1-c1ccnc(C(C)(C)C(F)(F)F)c1
> 9.50

Value lookup for pIC50; key = C[C@@H](NC(=O)c1ncnc(N)c1Cl)c1ncc(C(=O)Nc2cc(C(F)(F)F)c(Cl)cn2)s1 + CC(Nc1ncnc2nc[nH]c12)c1cc2cccc(Cl)c2c(=O)n1-c1ccccc1
> 7.50

The measured values listed here are drawn from PubChem BioAssay AID1963960.
